Catalogue of inhibition at 10 µM readings, one per entry.
# ASSAYED_SYSTEM: human GPR84 receptor (Homo sapiens, UniProt Q9NQS5)
# Construct: host or cells: HEK293 cells, transient transfection
# Sequence (Q9NQS5 whole entry): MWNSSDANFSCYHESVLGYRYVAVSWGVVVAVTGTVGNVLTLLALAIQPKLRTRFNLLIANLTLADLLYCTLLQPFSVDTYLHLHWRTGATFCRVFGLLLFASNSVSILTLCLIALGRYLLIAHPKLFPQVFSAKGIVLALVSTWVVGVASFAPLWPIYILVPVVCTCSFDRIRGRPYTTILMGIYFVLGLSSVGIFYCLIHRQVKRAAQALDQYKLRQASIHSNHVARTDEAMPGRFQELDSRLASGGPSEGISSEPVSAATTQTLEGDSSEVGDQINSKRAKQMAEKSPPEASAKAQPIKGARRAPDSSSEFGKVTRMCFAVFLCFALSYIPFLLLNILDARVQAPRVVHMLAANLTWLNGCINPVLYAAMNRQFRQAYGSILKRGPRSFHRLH
# ASSAY_COMMENT: Gαi biosensor BRET assay in HEK293 cells transfected with GPR84, stimulated with the GPR84 agonist ZQ-16
# Format: cell-based
# MEASUREMENT_PARAMETERS: HEK293, single concentration, concentration class F = 10 μM, 200 nmol/L ZQ-16
OUTCOME_MEASURE: inhibition at 10 µM

In [3]: df
Out[3]:
                               given_smiles  readout_value
0  CN(C)C(=O)Cn1cnc(-c2ncc(C#CC3CC3)cc2OC2CC2)c1          > 75%
1  FC1(F)CC12CN(c1cnc(-c3cn(CC4OCC5(CC5)CO4)nn3)c(OC3CC3)c1)C2      25 to 50%
2  CN(C)C(=O)Cn1cc(-c2nnc(-c3ccc(C#CC4CC4)cc3F)o2)nn1          ≤ 25%
